Biological target: T1, CatE1 FRET peptide X-KPAKFFRL-Z (not fully specified)
T1 chain: KPAKFFRL

[
  {
    "PROTEIN": "soluble recombinant human ADAM8, active (processed) form (protein) RYVELYVVVDNAEFQMLGSEAAVRHRVLEVVNHVDKLYQKLNFRVVLVGLEIWNSQDRFHVSPDPSVTLENLLTWQARQRTRRHLHDNVQLITGVDFTGTTVGFARVSAMCSHSSGAVNQDHSKNPVGVACTMAHEMGHNLGMDHDENVQGCRCQERFEAGRCIMAGSIGSSFPRMFSDCSQAYLESFLERPQSVCLANAP",
    "Relative proteolytic activity": "*****"
  },
  {
    "PROTEIN": "recombinant ADAM17 (protein) RADPDPMKNTCKLLVVADHRFYRYMGRGEESTTTNYLIELIDRVDDIYRNTSWDNAGFKGYGIQIEQIRILKSPQEVKPGEKHYNMAKSYPNEEKDAWDVKMLLEQFSFDIAEEASKVCLAHLFTYQDFDMGTLGLAYVGSPRANSHGGVCPKAYYSPVGKKNIYLNSGLTSTKNYGKTILTKEADLVTTHELGHNFGAEHDPDGLAECAPNEDQGGKYVMYPIAVSGDHENNKMFSNCSKQSIYKTIESKAQECFQERSNKV",
    "Relative proteolytic activity": "(-)"
  },
  {
    "PROTEIN": "soluble recombinant human MDC-L, active form (protein) VQEHEKYIEYYLVLDNGEFKRYNENQDEIRKRVFEMANYVNMLYKKLNTHVALVGMEIWTDKDKIKITPNASFTLENFSKWRGSVLSRRKRHDIAQLITATELAGTTVGLAFMSTMCSPYSVGVVQDHSDNLLRVAGTMAHEMGHNFGMFHDDYSCKCPSTICVMDKALSFYIPTDFSSCSRLSYDKFFEDKLSNCLFNAP",
    "Relative proteolytic activity": "*****"
  },
  {
    "PROTEIN": "soluble recombinant human ADAM15, active form (protein) DVVTETKTVELVIVADHSEAQKYRDFQHLLNRTLEVALLLDTFFRPLNVRVALVGLEAWTQRDLVEISPNPAVTLENFLHWRRAHLLPRLPHDSAQLVTGTSFSGPTVGMAIQNSICSPDFSGGVNMDHSTSILGVASSIAHELGHSLGLDHDLPGNSCPCPGPAPAKTCIMEASTDFLPGLNFSNCSRRALEKALLDGMGSCLFERL",
    "Relative proteolytic activity": "*****"
  }
]
